- method-summary: Plasma AMG 232 pharmacokinetics (HPLC-MS, non-compartmental analysis)
- Type: in vivo, human
- run-conditions: human, plasma, oral, 360 mg, Day 1, dose escalation, 360 mg (n = 3–4); read-out: Cmax, mean (SD)
- Experimental: Non-compartmental analysis was performed using WinNonlin Professional software, version 6.3. Parameters were summarized descriptively.
assay-readout: Cmax (ng/mL)

[[record]]
compound = "CC(C)[C@@H](CS(=O)(=O)C(C)C)N1C(=O)[C@@](C)(CC(=O)O)C[C@H](c2cccc(Cl)c2)[C@H]1c1ccc(Cl)cc1 [AMG 232]"
assay_readout = "Cmax"
unit_abbreviation = "ng/mL"
numeric_readout = 2380


----------
- method-summary: Plasma AMG 232 pharmacokinetics (HPLC-MS, non-compartmental analysis)
- Format: in vivo, human
- run-conditions: human, plasma, oral, 15 mg, Day 1, dose escalation, 15 mg (n = 3); read-out: Cmax, mean (SD)
assay-readout: Cmax (ng/mL)

[[record]]
test_smiles = "CC(C)[C@@H](CS(=O)(=O)C(C)C)N1C(=O)[C@@](C)(CC(=O)O)C[C@H](c2cccc(Cl)c2)[C@H]1c1ccc(Cl)cc1"
assay_readout = "Cmax"
unit_abbreviation = "ng/mL"
numeric_readout = 169


----------
- method-summary: Plasma AMG 232 pharmacokinetics (HPLC-MS, non-compartmental analysis)
- Assay type: in vivo, human
- run-conditions: human, plasma, oral, 120 mg, Day 1, dose escalation, 120 mg (n = 4–7); read-out: tmax, median (range)
assay-readout: Tmax (h)

[[record]]
test_smiles = "CC(C)[C@@H](CS(=O)(=O)C(C)C)N1C(=O)[C@@](C)(CC(=O)O)C[C@H](c2cccc(Cl)c2)[C@H]1c1ccc(Cl)cc1"
numeric_readout = 3


----------
- method-summary: Plasma AMG 232 pharmacokinetics (HPLC-MS, non-compartmental analysis)
- Assay type: in vivo, human
- run-conditions: human, plasma, oral, 240 mg, Day 1, 240-mg dose expansion, Other Solid (n = 9–16); read-out: tmax, median (range)
- Procedure: Non-compartmental analysis was performed using WinNonlin Professional software, version 6.3. Parameters were summarized descriptively.
assay-readout: Tmax (h)

[[record]]
compound = "CC(C)[C@@H](CS(=O)(=O)C(C)C)N1C(=O)[C@@](C)(CC(=O)O)C[C@H](c2cccc(Cl)c2)[C@H]1c1ccc(Cl)cc1 [AMG 232]"
assay_readout = "Tmax"
numeric_readout = 3


----------
- method-summary: Plasma AMG 232 pharmacokinetics (HPLC-MS, non-compartmental analysis)
- Type: in vivo, human
- run-conditions: human, plasma, oral, 240 mg, Day 1, 240-mg dose expansion, GBM (n = 6–9); read-out: AUC24h, mean (SD)
assay-readout: AUC(0-t) (ng·h/mL)

[[record]]
test_smiles = "CC(C)[C@@H](CS(=O)(=O)C(C)C)N1C(=O)[C@@](C)(CC(=O)O)C[C@H](c2cccc(Cl)c2)[C@H]1c1ccc(Cl)cc1"
unit_abbreviation = "ng·h/mL"
numeric_readout = 5360


----------
- method-summary: Plasma AMG 232 pharmacokinetics (HPLC-MS, non-compartmental analysis)
- Assay type: in vivo, human
- run-conditions: human, plasma, oral, 240 mg, Day 1, Parts 1 and 2, 240 mg (n = 54–75); read-out: Cmax, mean (SD)
assay-readout: Cmax (ng/mL)

[[record]]
test_smiles = "CC(C)[C@@H](CS(=O)(=O)C(C)C)N1C(=O)[C@@](C)(CC(=O)O)C[C@H](c2cccc(Cl)c2)[C@H]1c1ccc(Cl)cc1"
numeric_readout = 1350


----------
- method-summary: Plasma AMG 232 pharmacokinetics (HPLC-MS, non-compartmental analysis)
- Assay type: in vivo, human
- run-conditions: human, plasma, oral, 240 mg, Day 7, 240-mg dose expansion, GBM (n = 6–9); read-out: tmax, median (range)
assay-readout: Tmax (h)

[[record]]
test_smiles = "CC(C)[C@@H](CS(=O)(=O)C(C)C)N1C(=O)[C@@](C)(CC(=O)O)C[C@H](c2cccc(Cl)c2)[C@H]1c1ccc(Cl)cc1"
assay_readout = "Tmax"
numeric_readout = 2.8


----------
- method-summary: Plasma AMG 232 pharmacokinetics (HPLC-MS, non-compartmental analysis)
- Format: in vivo, human
- run-conditions: human, plasma, oral, 120 mg, Day 7, dose escalation, 120 mg (n = 4–7); read-out: Cmax, mean (SD)
assay-readout: Cmax (µg/mL)

[[record]]
test_smiles = "CC(C)[C@@H](CS(=O)(=O)C(C)C)N1C(=O)[C@@](C)(CC(=O)O)C[C@H](c2cccc(Cl)c2)[C@H]1c1ccc(Cl)cc1"
numeric_readout = 0.868

